- system.tested: MAP kinase-interacting serine/threonine-protein kinase 1 (Homo sapiens)
- Sequence (Q9BUB5 whole entry): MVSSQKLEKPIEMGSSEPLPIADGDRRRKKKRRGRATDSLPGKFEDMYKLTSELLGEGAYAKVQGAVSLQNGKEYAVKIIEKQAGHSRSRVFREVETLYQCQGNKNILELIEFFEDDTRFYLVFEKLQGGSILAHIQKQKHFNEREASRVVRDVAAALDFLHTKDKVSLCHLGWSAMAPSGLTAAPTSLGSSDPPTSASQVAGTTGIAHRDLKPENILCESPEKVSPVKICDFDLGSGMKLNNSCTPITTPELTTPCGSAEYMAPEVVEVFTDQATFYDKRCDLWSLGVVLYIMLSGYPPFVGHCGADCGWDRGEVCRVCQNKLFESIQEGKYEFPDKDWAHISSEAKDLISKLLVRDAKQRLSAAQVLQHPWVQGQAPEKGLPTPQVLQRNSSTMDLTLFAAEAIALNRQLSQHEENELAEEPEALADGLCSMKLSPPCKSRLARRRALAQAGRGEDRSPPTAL
pIC50: −log10 of the molar value.
measured.attribute: pIC50

Annotate the molecule "CS(=O)(=O)O.Cc1oc2c(O)c3c(c(O)c2c1C(=O)N1CC[C@H](N)C1)C(=O)c1ccccc1C3=O" with its measured pIC50.
> 5.30

* * *

Give IC50 for every item shown.
- Test system: K562
- assay.remarks: cells
- measurement.parameters: Homo sapiens, K562, 72 h
- Description: Antiproliferative activity against human K562 cells after 72 hrs by MTT assay
Numbers only, in nM.

As a guide, the following entries are already answered.
> print(dat)
                                   compound  measured.attribute  unit  result.number
1  Cc1oc2c(O)c3c(c(O)c2c1C(=O)N1CCNCC1)C(=O)c1ccccc1C3=O                IC50    nM           1300
2  Cc1oc2c(O)c3c(c(O)c2c1C(=O)N[C@@H]1CCNC1)C(=O)c1ccccc1C3=O                IC50    nM            700
3  Cc1oc2c(O)c3c(c(O)c2c1C(=O)N1CCNC(C)C1)C(=O)c1ccccc1C3=O (configuration not stated)                IC50    nM            900
4  Cc1oc2c(O)c3c(c(O)c2c1C(=O)N[C@H]1CCNC1)C(=O)c1ccccc1C3=O                IC50    nM            750
5  Cc1oc2c(O)c3c(c(O)c2c1C(=O)N1CCNCC1C)C(=O)c1ccccc1C3=O (configuration not stated)                IC50    nM           1100

# batch: return IC50 for each of the 7 compounds below
1. Cc1oc2c(O)c3c(c(O)c2c1C(=O)NC1CCNCC1)C(=O)c1ccccc1C3=O
2. Cc1oc2c(O)c3c(c(O)c2c1C(=O)NC1CCCNC1)C(=O)c1ccccc1C3=O (configuration not stated)
3. Cc1oc2c(O)c3c(c(O)c2c1C(=O)N1CCCC(N)C1)C(=O)c1ccccc1C3=O (configuration not stated)
4. Cc1oc2c(O)c3c(c(O)c2c1C(=O)N1CCC(N)CC1)C(=O)c1ccccc1C3=O
5. Cc1oc2c(O)c3c(c(O)c2c1C(=O)N1CCN(C)CC1)C(=O)c1ccccc1C3=O
6. Cc1oc2c(O)c3c(c(O)c2c1C(=O)NC1CN2CCC1CC2)C(=O)c1ccccc1C3=O (configuration not stated)
7. CS(=O)(=O)O.Cc1oc2c(O)c3c(c(O)c2c1C(=O)N1CC[C@@H](N)C1)C(=O)c1ccccc1C3=O

1. 2700
2. 600
3. 850
4. 2100
5. 1600
6. 600
7. 1100
